# Experimental details: CHI Log D procedure
# Format: physicochemical
# Measurement parameters: pH 7.4
# CHI Log D listing for each entry below
Write the value as a bare number.

Use the examples below as a reference point.
Compound: CC(=O)N1CCC[C@]12CC=CCCCC1(CCCC=CCCCCCC[C@@](C)(C(=O)N[C@@H](Cc3ccccc3)C(=O)N[C@@H](Cc3csc4ccccc34)C(=O)N[C@@H](Cc3c[nH]cn3)C(N)=O)NC(=O)[C@H](CC(N)=O)NC(=O)[C@H](Cc3ccccc3)NC(=O)[C@H](C)NC(=O)[C@H](C)NC(=O)[C@H](CC(=O)O)NC(=O)[C@H](CC(=O)O)NC1=O)NC(=O)[C@H](CC(C)C)NC(=O)[C@H](CC(=O)O)NC2=O (some centres unmarked) [I-564]
CHI Log D: 2.374
--
Compound: CCN(CC(=O)O)C[C@@H]1NC(=O)[C@H](CC(=O)O)NC(=O)C2(CCCC=CCCCOC(=O)N3CC[C@@](C(=O)N[C@@H](Cc4ccsc4)C(=O)N[C@@H](Cc4csc5ccccc45)C(=O)N[C@@H](CCC(N)=O)C(N)=O)(C3)NC(=O)[C@H](CC(N)=O)NC(=O)[C@H](Cc3ccccc3)NC(=O)[C@H](C)NC(=O)[C@H](C)NC1=O)CCCC=CC[C@]1(CCCN1C(C)=O)C(=O)N[C@@H](CC(=O)O)C(=O)N[C@@H](CC(C)(C)C)C(=O)N2 (some centres unmarked) [I-965]
CHI Log D: 1.903
--
Compound: CC[C@H](C)[C@@H]1NC(=O)[C@H](CC(=O)O)NC(=O)[C@]2(CC=CCCCC3(CCCC=CCCCCCC[C@@](C)(C(=O)N[C@@H](Cc4ccccc4)C(=O)N[C@@H](Cc4csc5ccccc45)C(=O)N[C@@H](CCC(N)=O)C(N)=O)NC(=O)[C@H](CCC(N)=O)NC(=O)[C@H](Cc4ccccc4)NC(=O)[C@H](CO)NC(=O)[C@H](C)NC(=O)[C@H](CCC(=O)O)NC(=O)[C@H](CC(=O)O)NC3=O)NC1=O)CCCN2C(C)=O (some centres unmarked) [I-661]
CHI Log D: 2.099
--
Compound: CC(=O)N1CCC[C@]12CC=CCCCC1(CCCC=CCCCOC(=O)N3CC[C@@](C(=O)N[C@@H](Cc4ccsc4)C(=O)N[C@@H](Cc4csc5ccccc45)C(=O)N[C@@H](CCC(N)=O)C(N)=O)(C3)NC(=O)[C@H]([C@@H](C)O)NC(=O)[C@H](Cc3ccccc3)NC(=O)[C@H](C)NC(=O)[C@H](C)NC(=O)[C@H](Cc3cccc(C(=O)O)c3)NC(=O)[C@H](CC(=O)O)NC1=O)NC(=O)[C@H](CC(C)(C)C)NC(=O)[C@H](CC(=O)O)NC2=O (some centres unmarked) [I-980]
CHI Log D: 1.695

Consider the additional compound presented here.
INPUT: GET /values?readout=CHI Log D&item= CC(=O)N1CCC[C@]12CC=CCCCC1(CCCC=CCCCCCC[C@@](C)(C(=O)N[C@@H](Cc3ccccc3)C(=O)N[C@@H](Cc3csc4ccccc34)C(=O)N[C@@H](Cc3c[nH]cn3)C(N)=O)NC(=O)[C@H](CC(N)=O)NC(=O)[C@H](Cc3ccccc3)NC(=O)[C@H](C)NC(=O)[C@H](C)NC(=O)[C@H](CC(=O)O)NC(=O)[C@H](CC(=O)O)NC1=O)NC(=O)[C@H](C)NC(=O)[C@H](CC(=O)O)NC2=O (some centres unmarked) [I-466]
OUTPUT: 2.069
